# target-of-assay: N-acylethanolamine acid amidase (NAAA) (Rattus norvegicus)
# Construct: extracted recombinant rat NAAA (rNAAA)
# Sequence (Q5KTC7 34-130): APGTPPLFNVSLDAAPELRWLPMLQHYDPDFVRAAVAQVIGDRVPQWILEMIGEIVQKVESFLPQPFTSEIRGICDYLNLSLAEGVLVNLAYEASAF
# Sequence (Q5KTC7 131-362): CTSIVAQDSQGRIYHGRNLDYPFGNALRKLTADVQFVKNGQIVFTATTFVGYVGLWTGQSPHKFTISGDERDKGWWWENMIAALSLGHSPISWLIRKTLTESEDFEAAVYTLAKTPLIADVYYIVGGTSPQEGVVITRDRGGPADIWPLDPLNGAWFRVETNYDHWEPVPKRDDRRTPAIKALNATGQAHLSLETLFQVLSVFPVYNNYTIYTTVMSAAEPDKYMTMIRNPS
# assay: enzyme activity assay with extracted recombinant rNAAA, heptadecenoylethanolamide substrate, concentration-response
property-name: IC50
Answer by giving the amount and then stating its unit.

Memo: O=C(CCCCCc1ccccc1)N1CCOC1=O , reported IC50: 269 nM

---

# target-of-assay: N-acylethanolamine acid amidase (NAAA) (Homo sapiens)
# Sequence (Q02083 29-125): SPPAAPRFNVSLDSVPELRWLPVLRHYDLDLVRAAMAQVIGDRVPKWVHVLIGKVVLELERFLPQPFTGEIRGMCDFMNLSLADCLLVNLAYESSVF
# Sequence (Q02083 126-359): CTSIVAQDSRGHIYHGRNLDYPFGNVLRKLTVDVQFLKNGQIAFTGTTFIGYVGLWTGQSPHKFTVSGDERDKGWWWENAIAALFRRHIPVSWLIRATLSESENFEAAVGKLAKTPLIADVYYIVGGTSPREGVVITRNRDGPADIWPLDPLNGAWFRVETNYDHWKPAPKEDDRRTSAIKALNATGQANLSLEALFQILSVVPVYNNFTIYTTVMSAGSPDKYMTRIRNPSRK
property-name: pIC50
API: returns pIC50 as number; meaning -log10 of concentration in mol/L.

Memo: O=C(CCCCCc1ccccc1)N1CCOC1=O , reported pIC50: 6.57

Reference source for all entries: paper PMC4550851
